Quick reference: viability of the listed items.
- REPORTED_CONDITIONS: % Viability non-Wnt responsive cells
Where a SMILES comes first, the peptide text is derived from it.
Your answer should be a plain number; it is taken to be in %.

Which measured viability value corresponds to CC[C@H](C)[C@H](NC(=O)[C@H](CC(C)C)NC(=O)[C@H](Cc1ccccc1)NC(=O)[C@H](Cc1c[nH]c2ccccc12)NC(=O)[C@@H](N)CCSC)C(=O)N[C@@H](C)C(=O)N[C@@H](Cc1ccccc1)C(=O)N[C@@H](Cc1c[nH]c2ccccc12)C(=O)NCC(=O)O [compound 159] (H-MWFLIAFWG-OH) ?
107

Thanks! And CC[C@H](C)[C@H](NC(=O)[C@H](CC(C)C)NC(=O)[C@H](Cc1ccccc1)NC(=O)[C@H](Cc1c[nH]c2ccccc12)NC(=O)[C@@H](N)CC(=O)O)C(=O)N[C@@H](CS)C(=O)N[C@@H](Cc1ccccc1)C(=O)N[C@@H](Cc1c[nH]c2ccccc12)C(=O)NCC(=O)O [compound 142] (H-DWFLICFWG-OH) ?
108

Quick one: CC[C@H](C)[C@H](NC(=O)[C@H](CC(C)C)NC(=O)[C@@H](NC(=O)[C@H](Cc1c[nH]c2ccccc12)NC(=O)[C@@H](N)CCCCN)[C@@H](C)CC)C(=O)N[C@@H](CO)C(=O)N[C@@H](Cc1ccccc1)C(=O)N[C@@H](Cc1c[nH]c2ccccc12)C(=O)NCC(=O)O [compound 125] (H-KWILISFWG-OH)
113

====

Each entry below lists one item and its recorded β-Cat FP Hill slope value.
- TARGET_DESC: UniProt:P35222
- Sequence (P35222 1-781): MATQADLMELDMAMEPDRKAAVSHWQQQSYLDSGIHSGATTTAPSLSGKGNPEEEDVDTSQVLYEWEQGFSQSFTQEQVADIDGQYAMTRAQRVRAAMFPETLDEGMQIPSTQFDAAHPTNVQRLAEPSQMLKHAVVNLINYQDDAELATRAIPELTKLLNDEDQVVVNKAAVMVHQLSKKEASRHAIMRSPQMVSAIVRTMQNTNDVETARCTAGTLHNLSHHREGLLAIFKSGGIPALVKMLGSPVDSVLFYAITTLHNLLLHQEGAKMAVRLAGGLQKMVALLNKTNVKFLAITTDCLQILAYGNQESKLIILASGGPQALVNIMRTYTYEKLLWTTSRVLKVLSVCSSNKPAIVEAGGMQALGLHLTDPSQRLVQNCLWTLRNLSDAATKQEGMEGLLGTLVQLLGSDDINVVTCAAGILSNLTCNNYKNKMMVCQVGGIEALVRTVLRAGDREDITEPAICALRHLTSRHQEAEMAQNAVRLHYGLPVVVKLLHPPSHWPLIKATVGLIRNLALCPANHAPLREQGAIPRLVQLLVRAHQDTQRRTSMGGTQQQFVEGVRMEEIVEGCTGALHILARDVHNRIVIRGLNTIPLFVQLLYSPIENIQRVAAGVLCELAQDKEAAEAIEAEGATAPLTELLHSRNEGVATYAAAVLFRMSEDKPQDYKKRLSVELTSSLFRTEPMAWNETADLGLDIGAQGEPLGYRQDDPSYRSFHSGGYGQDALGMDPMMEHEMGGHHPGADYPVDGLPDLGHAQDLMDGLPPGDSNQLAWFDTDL
- ASSAY_TEXT: KD50 measurement using competitive fluorescence polarization (FP) with labelled TCF4
- Assay type: binding
- REPORTED_CONDITIONS: fluorescence polarization, β-catenin
Where a SMILES comes first, the peptide text is derived from it. The star is where a group is joined. Bn = c1ccc(C*)cc1

COMPOUND: CC[C@H](C)[C@H](NC(=O)[C@H](CC(C)C)NC(=O)[C@H](Cc1ccccc1)NC(=O)[C@H](Cc1c[nH]c2ccccc12)NC(=O)[C@H](CCSC)NC(=O)[C@H](CCCNC(=N)N)NC(=O)[C@H](CO)NC(=O)[C@@H](N)CCSC)C(=O)N[C@@H](CO)C(=O)N[C@@H](COCc1ccccc1)C(=O)N[C@@H](Cc1c[nH]c2ccccc12)C(=O)O [compound 106] (H-MSRMWFLISS(Bn)W-OH)
RESULT: 0.7

Which β-Cat FP Hill slope is reported for this compound? CC[C@H](C)[C@H](NC(=O)[C@H](CC(C)C)NC(=O)[C@@H](NC(=O)[C@H](Cc1c[nH]c2ccccc12)NC(=O)[C@H](CCSC)NC(=O)[C@@H](N)Cc1c[nH]cn1)[C@@H](C)CC)C(=O)N[C@@H](CS)C(=O)N[C@@H](Cc1ccccc1)C(=O)N[C@@H](Cc1c[nH]c2ccccc12)C(=O)NCC(=O)O [compound 114] (H-HMWILICFWG-OH)
0.7

Now try CC[C@H](C)[C@H](NC(=O)[C@H](CC(C)C)NC(=O)[C@H](Cc1ccccc1)NC(=O)[C@H](Cc1c[nH]c2ccccc12)NC(=O)[C@H](CCSC)NC(=O)[C@H](CCCNC(=N)N)NC(=O)[C@H](CO)NC(=O)[C@@H](N)CCSC)C(=O)N[C@@H](CO)C(=O)N[C@@H](CO)C(=O)N[C@@H](Cc1c[nH]c2ccccc12)C(=O)NCC(=O)O [compound 54] (H-MSRMWFLISSWG-OH) .
0.7

====

- TARGET_DESC: β-catenin (Homo sapiens)
- Sequence (P35222 1-781): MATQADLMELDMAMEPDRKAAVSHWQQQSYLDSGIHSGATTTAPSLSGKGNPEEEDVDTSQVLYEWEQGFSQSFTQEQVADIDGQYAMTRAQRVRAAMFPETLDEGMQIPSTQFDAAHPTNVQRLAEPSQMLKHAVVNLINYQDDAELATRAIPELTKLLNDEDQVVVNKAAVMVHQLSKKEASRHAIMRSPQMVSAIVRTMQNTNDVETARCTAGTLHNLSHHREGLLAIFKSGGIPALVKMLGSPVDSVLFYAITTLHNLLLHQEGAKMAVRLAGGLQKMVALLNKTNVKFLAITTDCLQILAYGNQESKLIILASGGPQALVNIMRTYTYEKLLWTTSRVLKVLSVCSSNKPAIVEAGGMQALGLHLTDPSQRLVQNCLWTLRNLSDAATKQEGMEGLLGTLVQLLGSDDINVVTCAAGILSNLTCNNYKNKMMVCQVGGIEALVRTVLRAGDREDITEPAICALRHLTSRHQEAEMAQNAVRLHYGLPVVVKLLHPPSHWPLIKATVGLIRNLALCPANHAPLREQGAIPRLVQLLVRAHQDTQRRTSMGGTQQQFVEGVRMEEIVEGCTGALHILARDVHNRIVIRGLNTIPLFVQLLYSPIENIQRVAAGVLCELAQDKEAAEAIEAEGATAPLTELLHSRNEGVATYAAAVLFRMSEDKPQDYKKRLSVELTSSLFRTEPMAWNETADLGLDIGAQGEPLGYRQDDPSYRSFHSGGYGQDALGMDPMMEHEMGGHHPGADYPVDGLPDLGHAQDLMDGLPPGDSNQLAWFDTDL
- ASSAY_TEXT: KD50 measurement using competitive fluorescence polarization (FP) with labelled TCF4
- Format: binding
- REPORTED_CONDITIONS: fluorescence polarization, β-catenin
Where a SMILES comes first, the peptide text is derived from it.
Entries and their measured β-Cat FP Hill slope follow.

Tell me the measured β-Cat FP Hill slope of CC[C@H](C)[C@H](NC(=O)[C@H](CC(C)C)NC(=O)[C@H](Cc1ccccc1)NC(=O)[C@H](Cc1c[nH]c2ccccc12)NC(=O)[C@H](CCSC)NC(=O)[C@H](CCCNC(=N)N)NC(=O)[C@H](CO)NC(=O)[C@@H](N)CCSC)C(=O)N[C@@H](CO)C(=O)N[C@@H](Cc1ccccc1)C(=O)N[C@@H](Cc1c[nH]c2ccccc12)C(=O)N[C@@H](CCC(=O)O)C(=O)NCC(=O)O [compound 57] (H-MSRMWFLISFWEG-OH) , please.
0.7

====

Measured EC50, listed per entry for reference.
- TARGET_DESC: Wnt-responsive promoter (TCF/LEF)
- ASSAY_TEXT: Wnt-dependent luciferase reporter assay
- Experimental: The luciferase reporter assay is commonly used as a tool to study gene expression at the transcriptional level. […] Luminescence was recorded to determine the peptides with the highest β-catenin-inhibiting activity. EC50 values were calculated based on the inhibition of luminescence and expressed as concentration (uM) in Table 5. Peptides were assessed for their ability to inhibit Wnt signaling. […]
Where a SMILES comes first, the peptide text is derived from it.

What measured EC50 goes with CC[C@H](C)[C@@H]1NC(=O)[C@H](CC(C)C)NC(=O)[C@H](Cc2ccccc2)NC(=O)[C@H](Cc2c[nH]c3ccccc23)NC(=O)[C@@H](N)CCCCNC(=O)C[C@@H](C(=O)O)NC(=O)[C@H](Cc2c[nH]c3ccccc23)NC(=O)[C@H](C)NC(=O)[C@H](CO)NC1=O [compound 202] (HELM PEPTIDE1{K.W.F.L.I.S.A.W.D}$PEPTIDE1,PEPTIDE1,1:R3-9:R3$$$V2.0) ?
22.5 to 30 µM

Entry source: patent US12441768B2
